- Measured target: T1, human VPAC1 receptor (human, UniProt P32241 31-457)
- T1 sequence (looked up): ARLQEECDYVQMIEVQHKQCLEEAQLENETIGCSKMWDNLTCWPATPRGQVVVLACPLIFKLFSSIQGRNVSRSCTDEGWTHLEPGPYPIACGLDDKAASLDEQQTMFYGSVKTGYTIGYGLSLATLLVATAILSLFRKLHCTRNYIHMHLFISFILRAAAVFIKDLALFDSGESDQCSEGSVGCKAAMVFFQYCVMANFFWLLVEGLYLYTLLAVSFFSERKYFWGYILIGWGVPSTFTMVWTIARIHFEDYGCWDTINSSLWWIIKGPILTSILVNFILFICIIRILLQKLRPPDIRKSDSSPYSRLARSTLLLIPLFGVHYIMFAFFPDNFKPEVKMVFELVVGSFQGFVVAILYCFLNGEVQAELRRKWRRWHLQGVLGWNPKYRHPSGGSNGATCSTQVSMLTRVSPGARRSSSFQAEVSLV
- Experiment description: cell-based or functional assay
Where no end group is shown, it is not given here.
label 1 if EC50 cAMP, DiscoveRx is below 4 nM. label 0 if not; exact matches included in label 0.

Binder | Class name
Ac-HSDAVFTDNYTRLRKQVAAKKYLQSIKNKRYGGPSSGAPPPS [P33] | label 0
HSDYVFTDNYTRLRKQVAAKKYLQSIKNKRYGGPSSGAPPPS [P51] | label 1
HTDAVFTDNYTRLRKQVAAKKYLQSIKNKRYGGPSSGAPPPS [P45] | label 1
HSDAVFTDNYTRLRKQVAAKKYLQSIQNKRYGGPSSGAPPPS [P74] | label 1
HSDAVYTDNYTRLRKQVAAKKYLQSIKNKRYGGPSSGAPPPS [P68] | label 0

Each recorded value in this set is attributed to patent US20080026996A1.
